Molecular target: T1, Source 1 VEGF-D, mature dimeric recombinant human VEGF-D (CSIRO) (human, UniProt O43915 89-205)
T1 construct: Whole entry named; also called Source 1 VEGF-D dimer; VEGF-D dimer
T1 sequence: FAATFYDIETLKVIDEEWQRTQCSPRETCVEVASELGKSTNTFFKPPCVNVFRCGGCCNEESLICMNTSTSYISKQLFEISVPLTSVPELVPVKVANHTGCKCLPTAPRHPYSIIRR
Assay: SPR Protocol A: IgG captured by anti-human Fc, VEGF-D dimer as analyte
endpoint name: pKd
Expect pKd as a plain number equal to -log10 of the molar concentration.

Note to self: pKd recorded for humanized IgG antibody derived from clone HU75 (antibody, V domains shown, IgG) VH: QVQLVQSGAEVKQPGASVKVSCKASGYTFTGYNMYWVRQAPGQGLEWMGYIDPYNGDTTYNQKFKGRVTMTTDTSTSTAYMKLRSLRSDDTAVYYCARTSYYGGMDYWGRGTLVTVAS VL: DIVMTQTPLSGPVTLGQPASISCRSSQSLVHSNGNTYLHWLQQRPGQPPRLLIYKVSNRFSGVPDRFSGSGAGTDFTLKISRVEAEDVGVYYCSQSTHVPRTFGRGTKLEIKR was 9.90

Looking up humanized IgG antibody derived from clone HW78 (antibody, V domains shown, IgG) VH: QVQLVQSGAEVKQPGASVKVSCKARGYTFTGYNMYWVRQAPGQGLEWMGYIDPYNGDTTYNQKFKGRVTMTTDTSTGTAYMKLRSLRSDDTAVYYCARTSYYGGMDYWGRGTLVTVAS VL: DIVMTQTPLSSPVTLGQPASISCRSSQSLVHSNGNTYLHWLQQRPGQPPRLLIYKVSNRFSGVPDRFSGSGAGTDFTLKISRVEAEDVGVYYCSQSTHVPRTFGQGTKLEIKR , I see its pKd listed as 9.47

The binder listed as humanized IgG antibody derived from clone HH69 (antibody, V domains shown, IgG) VH: QVQLVQSGAKVKQPGASVKASCKASGYTFTGYNMYWVRQAPGQGLEWMGYIDPYSGDTTYNQKFKGRVTMTTDTSTSTAYMELRSLRSDDTAVYYCARTSYYGGMDYWGRGTLVTVAS VL: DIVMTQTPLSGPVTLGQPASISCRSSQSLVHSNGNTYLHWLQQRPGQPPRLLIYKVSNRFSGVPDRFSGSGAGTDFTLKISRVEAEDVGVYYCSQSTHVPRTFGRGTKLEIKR shows pKd equal to 9.70

Data credit: patent US20120093811A1
